This collection of values is drawn from patent US20230002496A1.

We begin with a simple list: items and their reported IC50, TF-1 cell proliferation.
Target: T1, human GM-CSFRα, full length on cells (human, UniProt P15509 23-400)
T1 sequence: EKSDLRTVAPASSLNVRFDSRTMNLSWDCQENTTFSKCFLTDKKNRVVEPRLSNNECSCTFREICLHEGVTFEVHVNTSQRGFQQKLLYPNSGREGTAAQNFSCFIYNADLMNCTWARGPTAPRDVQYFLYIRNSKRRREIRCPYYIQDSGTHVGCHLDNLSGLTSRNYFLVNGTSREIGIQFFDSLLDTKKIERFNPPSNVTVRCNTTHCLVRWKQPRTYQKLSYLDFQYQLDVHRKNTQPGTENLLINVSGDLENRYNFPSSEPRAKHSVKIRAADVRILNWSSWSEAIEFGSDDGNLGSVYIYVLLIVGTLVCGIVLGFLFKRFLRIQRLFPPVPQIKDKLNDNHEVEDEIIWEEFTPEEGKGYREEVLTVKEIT
Experiment: cell-based or functional assay
measurement-type: IC50, TF-1 cell proliferation (µg/mL)

[
  {
    "binder": "E35-scFv LS52H (scFv, V domains shown) VH: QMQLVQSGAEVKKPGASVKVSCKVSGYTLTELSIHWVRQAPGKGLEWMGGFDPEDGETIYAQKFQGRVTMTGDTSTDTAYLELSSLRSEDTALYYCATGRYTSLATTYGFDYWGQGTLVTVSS VL: EIVMTQSPATLSLSPGERATLSCRASQSVSSYLAWYQQKPGQAPRLLIYGAHSRATGIPDRFSGSGSGTDFTLTISRLEPEDFAVYYCQQYDNWPYTFGQGTKLEIK",
    "readout-value": 0.192
  },
  {
    "binder": "E35-scFv LS28H (scFv, V domains shown) VH: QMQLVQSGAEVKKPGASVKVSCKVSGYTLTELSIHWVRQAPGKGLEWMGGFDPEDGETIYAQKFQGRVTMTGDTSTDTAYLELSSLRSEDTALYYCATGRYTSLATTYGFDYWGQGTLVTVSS VL: EIVMTQSPATLSLSPGERATLSCRASQHVSSYLAWYQQKPGQAPRLLIYGASSRATGIPDRFSGSGSGTDFTLTISRLEPEDFAVYYCQQYDNWPYTFGQGTKLEIK",
    "readout-value": 0.058
  },
  {
    "binder": "E35-scFv LS28R (scFv, V domains shown) VH: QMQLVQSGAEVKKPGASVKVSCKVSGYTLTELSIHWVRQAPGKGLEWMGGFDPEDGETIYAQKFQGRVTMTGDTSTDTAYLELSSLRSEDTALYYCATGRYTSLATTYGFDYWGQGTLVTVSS VL: EIVMTQSPATLSLSPGERATLSCRASQRVSSYLAWYQQKPGQAPRLLIYGASSRATGIPDRFSGSGSGTDFTLTISRLEPEDFAVYYCQQYDNWPYTFGQGTKLEIK",
    "readout-value": 0.077
  }
]
